# credit: patent US6794379B2

For each entry below, report its melting point value.
Write the number in °C without appending the unit.

Entry CCOCCN(C(=O)Cc1ccc(-c2ccccc2)cc1)C(C)c1nc2ccccc2c(=O)n1-c1ccc(F)cc1 (stereo not shown) ; melting point = 150.6

melting point recorded for this compound, CCOCCN(C(=O)Cc1cccc(C(F)(F)F)c1)C(C)c1nc2ccccc2c(=O)n1-c1ccc(OCC)cc1 (stereo not shown) , is 157.9

Sure, the documented melting point for CCOCCN(C(=O)Cc1ccc(F)c(F)c1F)C(C)c1nc2ccccc2c(=O)n1-c1ccc(OCC)cc1 (stereo not shown) is 146.3

Input COc1ccc(-n2c(C(C)N(CCN3CCCC3)C(=O)Cc3ccc(-c4ccccc4)cc3)nc3ccccc3c2=O)cc1 (stereo not shown) . Output melting point: 116.3

Reported melting point of COc1ccc(-n2c(C(C)N(CCN(C)C)C(=O)Cc3ccc(OCc4ccccc4)cc3)nc3ccccc3c2=O)cc1 (stereo not shown) : 61.3

In plain terms, C[C@H](c1nc2ccccc2c(=O)n1-c1ccc(F)cc1)N(CCOCC(F)(F)F)C(=O)Cc1ccc(-c2ccccc2)cc1 has a documented melting point of 167.9

Kindly note the recorded melting point for CC(c1nc2ccccc2c(=O)n1-c1ccc(F)cc1)N(CCN(C)C)C(=O)c1ccc(-c2ccccc2)cc1 (stereo not shown) , which is 147.3

# melting point (compound: COCCN(C(=O)Cc1ccc(-c2ccccc2)cc1)C(C)c1nc2ccccc2c(=O)n1-c1ccc(F)cc1 (stereo not shown) ) is 153.8

The compound CCOCCN(C(=O)Cc1ccc(-c2ccccc2)cc1)C(C)c1nc2ccccc2c(=O)n1-c1ccc(OCC)cc1 (stereo not shown) showed melting point equal to 98.1

Memo: C#Cc1ccc(-n2c(C(C)N(CCOC)C(=O)Cc3ccc(-c4ccccc4)cc3)nc3ccccc3c2=O)cc1 (stereo not shown) , reported melting point: 73.3

In plain terms, C[C@H](c1nc2ccccc2c(=O)n1-c1ccc(F)cc1)N(CCOCC(F)(F)F)C(=O)Cc1ccc(C(F)(F)F)cc1 has a documented melting point of 156.2

Consider Cc1ccc(CC(=O)N(CCN(C)C)C(C)c2nc3ccccc3c(=O)n2-c2ccc(F)cc2)cc1 (stereo not shown) . Its measured melting point is 188.3

The recorded melting point for CCOCCN(C(=O)Cc1ccc(OC(F)(F)F)cc1)C(C)c1nc2ccccc2c(=O)n1-c1ccc(OCC)cc1 (stereo not shown) is 153

CC(c1nc2ccccc2c(=O)n1-c1ccc(F)cc1)N(Cc1cccnc1)C(=O)Cc1ccc(C(F)(F)F)cc1 (racemic) yielded melting point of 167

====

recorded metric: melting point

Value of measured melting point for the entry CCOc1ccc(-n2c([C@@H](C)N(Cc3cccnc3)C(=O)Cc3ccc(OCC(F)(F)F)cc3)nc3ccccc3c2=O)cc1 : 103 to 104 °C

// recorded melting point for CCOCCN(C(=O)Cc1ccc(F)c(C(F)(F)F)c1)[C@H](C)c1nc2ccccc2c(=O)n1-c1ccc(OCC)cc1 : 137 to 138 °C

melting point reading for CC(=O)CN(C(=O)Cc1ccc(C(F)(F)F)cc1)[C@H](C)c1nc2ccccc2c(=O)n1-c1ccc(F)cc1 : 220 to 221 °C

Reported melting point of CCOCCN(C(=O)Cc1cc(C(F)(F)F)cc(C(F)(F)F)c1)[C@H](C)c1nc2ccccc2c(=O)n1-c1ccc(OCC)cc1 : 57 to 60 °C

Query CCOCCN(C(=O)Cc1ccc(C(F)(F)F)c(F)c1)[C@H](C)c1nc2ccccc2c(=O)n1-c1ccc(OCC)cc1 yields melting point of 146 to 148 °C
